- Protocol description: Metabolic stability in human liver microsomes, unbound intrinsic clearance (Cl int/fu mic)
- Format: in vitro ADME
- Assay setup: human, liver microsomes, pH 7.4, human liver microsomes 0.25 mg/mL, 0.5 μM compound, NADPH, read-out: Cl int, mic unb. (h) [l/h/kg] (unbound intrinsic clearance, human)
Where a name gives a salt, the structure may show the parent alone.

{"Compound": "CCCN(Cc1ccccc1)c1nc(OC)c(CNC(=O)[C@@H]2CCCN2)cc1F [Example 171, Hydrochloride]", "CLint scaled at 0.5 μM": "5 to 50 L/h/kg"}
{"Compound": "COCCCc1nc(OC)c(CNC(=O)[C@@H]2CCCN2)cc1F [Example 168]", "CLint scaled at 0.5 μM": "< 5 L/h/kg"}
{"Compound": "COc1nc(OCC2CCC(F)(F)C2)c(F)cc1CNC(=O)[C@@H]1CCCN1C (some centres unmarked) [Example 7]", "CLint scaled at 0.5 μM": "< 5 L/h/kg"}
{"Compound": "COc1nc(C2CCOCC2)c(F)cc1CNC(=O)[C@@H]1CCCN1 [Example 159, Hydrochloride]", "CLint scaled at 0.5 μM": "< 5 L/h/kg"}
{"Compound": "COc1nc(NC2CCC2C(F)(F)F)c(F)cc1CNC(=O)[C@@H]1CCCN1 (some centres unmarked) [Example 186]", "CLint scaled at 0.5 μM": "< 5 L/h/kg"}
{"Compound": "COc1nc(N2CCC(C(F)(F)F)C2)c(F)cc1CNC(=O)[C@@H]1CCCN1 (some centres unmarked) [Example 163]", "CLint scaled at 0.5 μM": "5 to 50 L/h/kg"}
{"Compound": "COc1nc(OC2CCC(F)(F)C2)c(F)cc1CNC(=O)[C@@H]1CCCN1 (some centres unmarked) [Example 24]", "CLint scaled at 0.5 μM": "< 5 L/h/kg"}
{"Compound": "COc1nc(O[C@H]2CC[C@@H](C(F)(F)F)CC2)c(F)cc1CNC(=O)[C@@H]1CCCN1C [Example 19]", "CLint scaled at 0.5 μM": "5 to 50 L/h/kg"}
{"Compound": "COc1nc(OCC2(C(F)(F)F)CC2)c(F)cc1CN(C)C(=O)[C@@H]1CCCN1C [Example 98, Hydrochloride]", "CLint scaled at 0.5 μM": "< 5 L/h/kg"}
{"Compound": "COc1nc(N2CCC(C(F)(F)F)CC2)c(F)cc1CNC(=O)[C@@H]1CCCN1 [Example 133]", "CLint scaled at 0.5 μM": "5 to 50 L/h/kg"}
{"Compound": "COc1nc(N2CC(C)(Oc3ccccc3)C2)c(F)cc1CNC(=O)[C@@H]1CCCN1 [Example 176]", "CLint scaled at 0.5 μM": "5 to 50 L/h/kg"}
{"Compound": "COc1nc(O[C@H]2CC[C@@H](F)CC2)c(F)cc1CNC(=O)[C@@H]1CCCN1 [Example 30]", "CLint scaled at 0.5 μM": "< 5 L/h/kg"}
{"Compound": "COc1nc(NC2CCCCC2)c(F)cc1CNC(=O)[C@@H]1CCCN1 [Example 131]", "CLint scaled at 0.5 μM": "5 to 50 L/h/kg"}
{"Compound": "COc1nc(C2CCCOC2)c(F)cc1CNC(=O)[C@@H]1CCCN1 (some centres unmarked) [Example 158, Hydrochloride]", "CLint scaled at 0.5 μM": "< 5 L/h/kg"}
{"Compound": "COc1nc(OC2CC(F)(F)C2)c(F)cc1CN(C)C(=O)[C@@H]1CCCN1 [Example 78, Hydrochloride]", "CLint scaled at 0.5 μM": "< 5 L/h/kg"}
{"Compound": "COc1nc(OC2CCC(C(F)F)CC2)c(F)cc1CNC(=O)[C@@H]1CCCN1 (some centres unmarked) [Example 66, hydrochloride]", "CLint scaled at 0.5 μM": "5 to 50 L/h/kg"}
{"Compound": "COc1nc(OCC2CC(F)(F)C2)c(F)cc1CN(C)C(=O)[C@@H]1CCCN1 [Example 115, Hydrochloride]", "CLint scaled at 0.5 μM": "< 5 L/h/kg"}
{"Compound": "COc1nc(OCC2(C(F)(F)F)CC2)c(F)cc1CNC(=O)[C@@H]1CCCN1 [Example 48]", "CLint scaled at 0.5 μM": "< 5 L/h/kg"}
{"Compound": "COc1nc(OC2CC(F)(F)C2)c(F)cc1CNC(=O)[C@@H]1CCCN1 [Example 44]", "CLint scaled at 0.5 μM": "< 5 L/h/kg"}
{"Compound": "COc1nc(OC[C@@H]2CCC(F)(F)C2)c(F)cc1CNC(=O)[C@@H]1CCCN1 [Example 33]", "CLint scaled at 0.5 μM": "< 5 L/h/kg"}
{"Compound": "COc1nc(NC2CCC(C(F)(F)F)CC2)c(F)cc1CN(C)C(=O)[C@@H]1CCCN1 (mixture of isomers) [Example 157]", "CLint scaled at 0.5 μM": "5 to 50 L/h/kg"}
{"Compound": "COc1nc(OC2CCC(C(F)(F)F)CC2)c(F)cc1CNC(=O)[C@@H]1C[C@@H](C)CN1 (some centres unmarked) [Example 60, Hydrochloride]", "CLint scaled at 0.5 μM": "50 to 500 L/h/kg"}
{"Compound": "COc1nc(OC2CCC(F)(F)CC2)c(F)cc1CNC(=O)[C@H]1CCCN1C [Example 52, Hydrochloride]", "CLint scaled at 0.5 μM": "< 5 L/h/kg"}
{"Compound": "COc1nc(C(F)(F)Cc2ccccc2)c(F)cc1CN(C)C(=O)[C@@H]1CCCN1 [Example 191, Hydrochloride]", "CLint scaled at 0.5 μM": "5 to 50 L/h/kg"}
{"Compound": "COc1nc(O[C@H]2CC[C@H](C(F)(F)F)CC2)c(F)cc1CN(C)C(=O)[C@@H]1CCCN1 [Example 116, Hydrochloride]", "CLint scaled at 0.5 μM": "5 to 50 L/h/kg"}
{"Compound": "COc1nc(-c2ccccc2)c(F)cc1CNC(=O)[C@@H]1CCCN1 [Example 125]", "CLint scaled at 0.5 μM": "5 to 50 L/h/kg"}
{"Compound": "COc1nc(OC2CCC(C(F)(F)F)CC2)c(F)cc1CNC(=O)[C@H]1NC[C@H]1C (some centres unmarked) [Example 79]", "CLint scaled at 0.5 μM": "50 to 500 L/h/kg"}
{"Compound": "COc1nc(N(C)CCc2ccccc2)c(F)cc1CNC(=O)[C@@H]1CCCN1 [Example 137, Hydrochloride]", "CLint scaled at 0.5 μM": "50 to 500 L/h/kg"}
{"Compound": "COc1nc(OCC2CC2(F)F)c(F)cc1CNC(=O)[C@@H]1CCCN1C (some centres unmarked) [Example 68, Hydrochloride]", "CLint scaled at 0.5 μM": "< 5 L/h/kg"}
{"Compound": "COc1nc(N2CC3C(C2)C3(F)F)c(F)cc1CNC(=O)[C@@H]1CCCN1 (some centres unmarked) [Example 183]", "CLint scaled at 0.5 μM": "5 to 50 L/h/kg"}
{"Compound": "COc1nc(OCC2CCCCC2)c(F)cc1CNC(=O)[C@@H]1CCCN1 [Example 3]", "CLint scaled at 0.5 μM": "5 to 50 L/h/kg"}
{"Compound": "COc1nc(OCc2ccccc2)c(F)cc1CNC(=O)[C@@H]1CCCN1 [Example 2]", "CLint scaled at 0.5 μM": "< 5 L/h/kg"}
